Test system: NCI-H2170
Experiment: relative viability (nuclei count vs DMSO), 5 days (fraction); higher = more cells survive
Conditions: first compound 2.53 µM
Field 'label' (enum: Met / Not met). Set to Met when relative viability is strictly under 0.9; else Not met.

Lab note: confirm whether the reported relative viability for this compound is below 0.9, equality not counting. compound: CCCCCCCCCCCC1=C(O)C(=O)C=C(O)C1=O [Embelin] + C[C@@H](Oc1cc(-c2cnn(C3CCNCC3)c2)cnc1N)c1c(Cl)ccc(F)c1Cl [Crizotinib] (partner 1 µM)
Not met

// repeat for CCCCCCCCCCCC1=C(O)C(=O)C=C(O)C1=O [Embelin] + CS(=O)(=O)N1CCN(Cc2cc3nc(-c4cccc5[nH]ncc45)nc(N4CCOCC4)c3s2)CC1 [Pictilisib] (partner 1 µM) and report
Met

Ok, now CCCCCCCCCCCC1=C(O)C(=O)C=C(O)C1=O [Embelin] + COc1cccc2cc(-c3nc([C@H]4CC[C@H](C(=O)O)CC4)n4ncnc(N)c34)[nH]c12 [OSI-027] (partner 0.5 µM)
Met

Then CCCCCCCCCCCC1=C(O)C(=O)C=C(O)C1=O [Embelin] + CS(=O)(=O)CCNCc1ccc(-c2ccc3ncnc(Nc4ccc(OCc5cccc(F)c5)c(Cl)c4)c3c2)o1 [Lapatinib] (partner 2 µM) ?
Met

Continue with CCCCCCCCCCCC1=C(O)C(=O)C=C(O)C1=O [Embelin] + CC(=O)Nc1cccc(-n2c(=O)n(C3CC3)c(=O)c3c(Nc4ccc(I)cc4F)n(C)c(=O)c(C)c32)c1 [Trametinib] (partner 0.02 µM)
Not met

Also check CCCCCCCCCCCC1=C(O)C(=O)C=C(O)C1=O [Embelin] + Cc1cc(Nc2cc(N3CCN(C)CC3)nc(Sc3ccc(NC(=O)C4CC4)cc3)n2)n[nH]1 [Tozasertib] (partner 0.1 µM)
Met
